# assay notes: pKa value measured
# Format: physicochemical
readout: pKa

Query block: Query (compound): C=C[C@]1(C)C[C@@H](OC(=O)CS[C@@H]2CC[C@@H](N)C[C@H]2O)[C@]2(C)[C@H](C)CC[C@]3(CCC(=O)[C@H]32)[C@@H](C)[C@@H]1O [BC-3781] ; field requested: pKa
Result block: 9.41

----------
# assay notes: Solubility of BC-3781 acetate in various media
# Assay type: physicochemical
# run conditions: water
readout: solubility

Query block: Query (compound): C=C[C@]1(C)C[C@@H](OC(=O)CS[C@@H]2CC[C@@H](N)C[C@H]2O)[C@]2(C)[C@H](C)CC[C@]3(CCC(=O)[C@H]32)[C@@H](C)[C@@H]1O [BC-3781 acetate] ; field requested: solubility
Result block: ≥ 100 mg/mL
